- ASSAY DETAILS: qHTS assay to identify small molecule agonists of the hypoxia (HIF-1) signaling pathway - cell viability counter screen (AID 1224844); also: nearly all actives have a fitted effect of over 50% in size
- REPORTED CONDITIONS: HRE-bla ME-180 viability, CellTiter-Glo luminescence, 17 h; series mostly up to 76.8 µM
Results filed as inconclusive are left out. Activity calls are given as the source filed them. Calls follow the shape of the full dose curve.
Classes used: TRUE = active, FALSE = inactive

[
  {
    "MOLECULE": "CN1C(=O)NC(=O)C(C)(C2=CCCCC2)C1=O (stereo not given)",
    "ASSIGNED CATEGORY": "FALSE"
  },
  {
    "MOLECULE": "CC(C)(Cl)[N+](=O)[O-]",
    "ASSIGNED CATEGORY": "FALSE"
  },
  {
    "MOLECULE": "O=S1OC[C@@H]2[C@H](CO1)[C@]1(Cl)C(Cl)=C(Cl)[C@@]2(Cl)C1(Cl)Cl (stereo not given in full)",
    "ASSIGNED CATEGORY": "TRUE"
  },
  {
    "MOLECULE": "OCCCBr",
    "ASSIGNED CATEGORY": "FALSE"
  },
  {
    "MOLECULE": "CCCN(CCCl)c1c([N+](=O)[O-])cc(C(F)(F)F)cc1[N+](=O)[O-]",
    "ASSIGNED CATEGORY": "FALSE"
  }
]

###

- ASSAY DETAILS: qHTS assay to identify small molecule antagonists of the androgen receptor (AR) signaling pathway using the MDA cell line in the presence of 0.5 nM R1881 - cell viability counter screen (AID 1259242); also: nearly all actives have a fitted effect of over 45% in size
- REPORTED CONDITIONS: MDA-kb2 viability, CellTiter-Fluor protease fluorescence, 16 h; series mostly up to 92.4 µM
Inconclusive results are not listed. Activity calls are given as the source filed them. The call rests on the fitted dose curve; in most records, active means well fitted cell-killing curve with a large enough effect in the repeat runs; inconclusive means weak or mixed curves, or effect the other way; inactive means flat fitted curve, though single readings scatter.
Classes used: active, inactive

[
  {
    "MOLECULE": "CC(Cl)C(C)Cl (stereo not given)",
    "ASSIGNED CATEGORY": "inactive"
  },
  {
    "MOLECULE": "CC(c1ccc(O)cc1)(c1ccc(O)cc1)c1ccc(O)cc1",
    "ASSIGNED CATEGORY": "inactive"
  },
  {
    "MOLECULE": "C=CCC1([C@H](C)CCC)C(=O)NC(=O)NC1=O",
    "ASSIGNED CATEGORY": "inactive"
  },
  {
    "MOLECULE": "Cl/C=C\\Cl",
    "ASSIGNED CATEGORY": "inactive"
  },
  {
    "MOLECULE": "N#CCC#N",
    "ASSIGNED CATEGORY": "inactive"
  },
  {
    "MOLECULE": "IC(I)=C(I)I",
    "ASSIGNED CATEGORY": "active"
  },
  {
    "MOLECULE": "C=CC(=O)OC",
    "ASSIGNED CATEGORY": "inactive"
  },
  {
    "MOLECULE": "O=C(CBr)OCc1ccccc1",
    "ASSIGNED CATEGORY": "inactive"
  },
  {
    "MOLECULE": "N#C/C(N)=C(/N)C#N",
    "ASSIGNED CATEGORY": "inactive"
  },
  {
    "MOLECULE": "CCOS(C)(=O)=O",
    "ASSIGNED CATEGORY": "inactive"
  },
  {
    "MOLECULE": "O=C(NCc1cccnc1)Nc1ccc([N+](=O)[O-])cc1",
    "ASSIGNED CATEGORY": "inactive"
  },
  {
    "MOLECULE": "COc1nn(C(=O)NS(=O)(=O)c2ccccc2OC(F)(F)F)c(=O)n1C",
    "ASSIGNED CATEGORY": "inactive"
  },
  {
    "MOLECULE": "II",
    "ASSIGNED CATEGORY": "inactive"
  },
  {
    "MOLECULE": "CC1(C)CCC(Cc2ccc(Cl)cc2)C1(O)Cn1cncn1 (stereo not given)",
    "ASSIGNED CATEGORY": "inactive"
  },
  {
    "MOLECULE": "O=C(NC(=O)c1c(F)cccc1F)Nc1cc(Cl)c(Oc2ncc(C(F)(F)F)cc2Cl)c(Cl)c1",
    "ASSIGNED CATEGORY": "inactive"
  },
  {
    "MOLECULE": "C=CCN1CC[C@]23c4c5ccc(O)c4O[C@H]2C(=O)CC[C@@]3(O)[C@H]1C5",
    "ASSIGNED CATEGORY": "inactive"
  },
  {
    "MOLECULE": "C[C@H]1CNCCc2ccc(Cl)cc21",
    "ASSIGNED CATEGORY": "inactive"
  },
  {
    "MOLECULE": "c1ccc(CN2CCNCC2)cc1",
    "ASSIGNED CATEGORY": "inactive"
  },
  {
    "MOLECULE": "O=C1C(=O)c2cccc3cccc1c23",
    "ASSIGNED CATEGORY": "inactive"
  },
  {
    "MOLECULE": "CCOC(=O)COc1cc(-c2nn(C)c(OC(F)F)c2Cl)c(F)cc1Cl",
    "ASSIGNED CATEGORY": "inactive"
  }
]

Sourced from PubChem BioAssay (Tox21)
